# Tested on: Enterobacter cloacae clinical strains
# Type: cell-based
# Set-up: unit: μg/ml
# test-settings: Enterobacter cloacae clinical strain 2; microdilution, Muller Hinton broth-cation adjusted, 0.02% BSA, 0.2% acetic acid
Square brackets hold non-standard residues; d marks the D form. Peptide text beside a SMILES is read from it.
Can you tell me Minimum inhibitory concentration for the items I'm about to list?
# respond with the number and nothing more

Req: Which Minimum inhibitory concentration value is on record for CC[C@@H](C)[C@@H](N)C(=O)N[C@H](Cc1c[nH]c2ccccc12)C(=O)N[C@H](CCCCN)C(=O)N[C@H](CCCNC(=N)N)C(=O)N[C@H](Cc1ccccc1)C(=O)N[C@H](CCCNC(=N)N)C(=O)N[C@H](CC(C)C)C(=O)N[C@H](Cc1ccccc1)C(=O)N[C@H](CCCCN)C(=O)N[C@H](CCCCN)C(=O)N[C@H](Cc1c[nH]c2ccccc12)C(=O)O [Chain304D] (H-[dI][dW][dK][dR][dF][dR][dL][dF][dK][dK][dW]-OH) ?
Resp: 64

Req: Next up: CC(C)C[C@@H](NC(=O)[C@@H](Cc1c[nH]c2ccccc12)NC(=O)[C@@H](Cc1ccccc1)NC(=O)[C@@H](Cc1c[nH]c2ccccc12)NC(=O)[C@@H](CCCCN)NC(=O)[C@@H](CCCNC(=N)N)NC(=O)[C@H](N)Cc1c[nH]c2ccccc12)C(=O)N[C@H](Cc1ccccc1)C(=O)N[C@H](CCCCN)C(=O)N[C@H](CCCCN)C(=O)N[C@H](CCCNC(=N)N)C(=O)O [Chain309D] (H-[dW][dR][dK][dW][dF][dW][dL][dF][dK][dK][dR]-OH)
Resp: 128

Req: Next up: CC(C)C[C@@H](NC(=O)[C@H](N)CCCCN)C(=O)N[C@H](CCCCN)C(=O)N[C@H](Cc1c[nH]c2ccccc12)C(=O)N[C@H](Cc1ccccc1)C(=O)N[C@H](Cc1c[nH]c2ccccc12)C(=O)N[C@H](CC(C)C)C(=O)N[C@H](Cc1ccccc1)C(=O)N[C@H](CCCCN)C(=O)N[C@H](CCCCN)C(=O)N[C@H](CCCNC(=N)N)C(=O)O [Chain311D] (H-[dK][dL][dK][dW][dF][dW][dL][dF][dK][dK][dR]-OH)
Resp: 4

---

# Test system: Staphylococcus aureus clinical strains
# Type: cell-based
# Design: unit: μg/ml
# test-settings: Staphylococcus aureus clinical strain 5; microdilution, Muller Hinton broth-cation adjusted, 0.02% BSA, 0.2% acetic acid
Square brackets hold non-standard residues; d marks the D form. Peptide text beside a SMILES is read from it.
measured-attribute: Minimum inhibitory concentration
# respond with the number and nothing more

Req: Which Minimum inhibitory concentration value is on record for CC[C@@H](C)[C@@H](NC(=O)[C@@H](CC(C)C)NC(=O)[C@@H](CCCNC(=N)N)NC(=O)[C@H](N)CCCNC(=N)N)C(=O)N[C@H](Cc1c[nH]c2ccccc12)C(=O)N[C@H](CCCNC(=N)N)C(=O)N[C@H](CCCNC(=N)N)C(=O)N[C@H](Cc1ccccc1)C(=O)N[C@H](CCCCN)C(=O)N[C@H](Cc1c[nH]c2ccccc12)C(=O)N[C@H](CC(C)C)C(=O)N[C@H](CCCNC(=N)N)C(=O)O [Chain204D] (H-[dR][dR][dL][dI][dW][dR][dR][dF][dK][dW][dL][dR]-OH) ?
Resp: 1

Req: Next up: CC(C)C[C@@H](NC(=O)[C@H](N)CCCNC(=N)N)C(=O)N[C@H](CCCCN)C(=O)N[C@H](Cc1c[nH]c2ccccc12)C(=O)N[C@H](Cc1ccccc1)C(=O)N[C@H](CC(C)C)C(=O)N[C@H](CC(C)C)C(=O)N[C@H](Cc1ccccc1)C(=O)N[C@H](CCCNC(=N)N)C(=O)N[C@H](CCCCN)C(=O)N[C@H](CCCNC(=N)N)C(=O)O [Chain308D] (H-[dR][dL][dK][dW][dF][dL][dL][dF][dR][dK][dR]-OH)
Resp: 2

Req: Next up: CC[C@@H](C)[C@@H](N)C(=O)N[C@H](Cc1c[nH]c2ccccc12)C(=O)N[C@H](CCCCN)C(=O)N[C@H](CCCNC(=N)N)C(=O)N[C@H](Cc1ccccc1)C(=O)N[C@H](CCCNC(=N)N)C(=O)N[C@H](CC(C)C)C(=O)N[C@H](Cc1ccccc1)C(=O)N[C@H](CCCCN)C(=O)N[C@H](CCCCN)C(=O)N[C@H](Cc1c[nH]c2ccccc12)C(=O)O [Chain304D] (H-[dI][dW][dK][dR][dF][dR][dL][dF][dK][dK][dW]-OH)
Resp: 16

Req: Next up: CC(C)C[C@@H](NC(=O)[C@@H](Cc1c[nH]c2ccccc12)NC(=O)[C@@H](Cc1ccccc1)NC(=O)[C@@H](Cc1c[nH]c2ccccc12)NC(=O)[C@@H](CCCCN)NC(=O)[C@@H](CCCNC(=N)N)NC(=O)[C@H](N)Cc1c[nH]c2ccccc12)C(=O)N[C@H](Cc1ccccc1)C(=O)N[C@H](CCCCN)C(=O)N[C@H](CCCCN)C(=O)N[C@H](CCCNC(=N)N)C(=O)O [Chain309D] (H-[dW][dR][dK][dW][dF][dW][dL][dF][dK][dK][dR]-OH)
Resp: 8

Req: Next up: CC(C)C[C@@H](NC(=O)[C@H](N)CCCNC(=N)N)C(=O)N[C@H](CCCCN)C(=O)N[C@H](Cc1c[nH]c2ccccc12)C(=O)N[C@H](Cc1ccccc1)C(=O)N[C@H](Cc1c[nH]c2ccccc12)C(=O)N[C@H](CC(C)C)C(=O)N[C@H](Cc1ccccc1)C(=O)N[C@H](CCCNC(=N)N)C(=O)N[C@H](CCCCN)C(=O)N[C@H](CCCNC(=N)N)C(=O)O [Chain307D] (H-[dR][dL][dK][dW][dF][dW][dL][dF][dR][dK][dR]-OH)
Resp: 2

Req: Next up: CC(C)C[C@@H](NC(=O)[C@@H](CCCCN)NC(=O)[C@@H](CCCCN)NC(=O)[C@@H](Cc1ccccc1)NC(=O)[C@@H](CC(C)C)NC(=O)[C@@H](Cc1c[nH]c2ccccc12)NC(=O)[C@@H](CCCNC(=N)N)NC(=O)[C@@H](Cc1c[nH]c2ccccc12)NC(=O)[C@@H](CCCCN)NC(=O)[C@@H](CCCNC(=N)N)NC(=O)[C@H](N)CCCCN)C(=O)O [Chain310D] (H-[dK][dR][dK][dW][dR][dW][dL][dF][dK][dK][dL]-OH)
Resp: 4

Req: Next up: CC(C)C[C@@H](NC(=O)[C@H](N)CCCCN)C(=O)N[C@H](CCCCN)C(=O)N[C@H](Cc1c[nH]c2ccccc12)C(=O)N[C@H](Cc1ccccc1)C(=O)N[C@H](Cc1c[nH]c2ccccc12)C(=O)N[C@H](CC(C)C)C(=O)N[C@H](Cc1ccccc1)C(=O)N[C@H](CCCCN)C(=O)N[C@H](CCCCN)C(=O)N[C@H](CCCNC(=N)N)C(=O)O [Chain311D] (H-[dK][dL][dK][dW][dF][dW][dL][dF][dK][dK][dR]-OH)
Resp: 1

Req: Next up: CC[C@@H](C)[C@@H](NC(=O)[C@@H](Cc1c[nH]c2ccccc12)NC(=O)[C@H](N)CCCCN)C(=O)N[C@@H](C(=O)N[C@H](Cc1c[nH]c2ccccc12)C(=O)N[C@H](CCCNC(=N)N)C(=O)N[C@H](Cc1c[nH]c2ccccc12)C(=O)N[C@H](CCCNC(=N)N)C(=O)N[C@H](Cc1ccccc1)C(=O)N[C@H](CCCCN)C(=O)N[C@H](CCCNC(=N)N)C(=O)O)C(C)C [Chain201D] (H-[dK][dW][dI][dV][dW][dR][dW][dR][dF][dK][dR]-OH)
Resp: 1

Req: Next up: CC(C)C[C@@H](NC(=O)[C@H](N)CCCNC(=N)N)C(=O)N[C@H](CCCCN)C(=O)N[C@H](CCCNC(=N)N)C(=O)N[C@H](Cc1c[nH]c2ccccc12)C(=O)N[C@H](CCCNC(=N)N)C(=O)N[C@H](CC(C)C)C(=O)N[C@H](Cc1ccccc1)C(=O)N[C@H](CCCNC(=N)N)C(=O)N[C@H](CCCCN)C(=O)N[C@H](CCCNC(=N)N)C(=O)O [Chain306D] (H-[dR][dL][dK][dR][dW][dR][dL][dF][dR][dK][dR]-OH)
Resp: 8

---

# Tested on: Klebsiella pneumoniae clinical strains
# Assay type: cell-based
# test-settings: Klebsiella pneumoniae clinical strain 2; microdilution, Muller Hinton broth-cation adjusted, 0.02% BSA, 0.2% acetic acid
Square brackets hold non-standard residues; d marks the D form. Peptide text beside a SMILES is read from it.
measured-attribute: Minimum inhibitory concentration

Req: Which Minimum inhibitory concentration value is on record for CC(C)C[C@@H](NC(=O)[C@@H](CCCCN)NC(=O)[C@@H](CCCCN)NC(=O)[C@@H](Cc1ccccc1)NC(=O)[C@@H](CC(C)C)NC(=O)[C@@H](Cc1c[nH]c2ccccc12)NC(=O)[C@@H](CCCNC(=N)N)NC(=O)[C@@H](Cc1c[nH]c2ccccc12)NC(=O)[C@@H](CCCCN)NC(=O)[C@@H](CCCNC(=N)N)NC(=O)[C@H](N)CCCCN)C(=O)O [Chain310D] (H-[dK][dR][dK][dW][dR][dW][dL][dF][dK][dK][dL]-OH) ?
Resp: 64

Req: Next up: CC[C@@H](C)[C@@H](N)C(=O)N[C@H](Cc1c[nH]c2ccccc12)C(=O)N[C@H](CCCCN)C(=O)N[C@H](CCCNC(=N)N)C(=O)N[C@H](Cc1ccccc1)C(=O)N[C@H](CCCNC(=N)N)C(=O)N[C@H](CC(C)C)C(=O)N[C@H](Cc1ccccc1)C(=O)N[C@H](CCCCN)C(=O)N[C@H](CCCCN)C(=O)N[C@H](Cc1c[nH]c2ccccc12)C(=O)O [Chain304D] (H-[dI][dW][dK][dR][dF][dR][dL][dF][dK][dK][dW]-OH)
Resp: >128

Req: Next up: CC(C)C[C@@H](NC(=O)[C@H](N)CCCNC(=N)N)C(=O)N[C@H](CCCCN)C(=O)N[C@H](Cc1c[nH]c2ccccc12)C(=O)N[C@H](Cc1ccccc1)C(=O)N[C@H](CC(C)C)C(=O)N[C@H](CC(C)C)C(=O)N[C@H](Cc1ccccc1)C(=O)N[C@H](CCCNC(=N)N)C(=O)N[C@H](CCCCN)C(=O)N[C@H](CCCNC(=N)N)C(=O)O [Chain308D] (H-[dR][dL][dK][dW][dF][dL][dL][dF][dR][dK][dR]-OH)
Resp: 4

Req: Next up: CC(C)C[C@@H](NC(=O)[C@@H](Cc1c[nH]c2ccccc12)NC(=O)[C@@H](Cc1ccccc1)NC(=O)[C@@H](Cc1c[nH]c2ccccc12)NC(=O)[C@@H](CCCCN)NC(=O)[C@@H](CCCNC(=N)N)NC(=O)[C@H](N)Cc1c[nH]c2ccccc12)C(=O)N[C@H](Cc1ccccc1)C(=O)N[C@H](CCCCN)C(=O)N[C@H](CCCCN)C(=O)N[C@H](CCCNC(=N)N)C(=O)O [Chain309D] (H-[dW][dR][dK][dW][dF][dW][dL][dF][dK][dK][dR]-OH)
Resp: 32

Req: Next up: CC(C)C[C@@H](NC(=O)[C@H](N)CCCNC(=N)N)C(=O)N[C@H](CCCCN)C(=O)N[C@H](Cc1c[nH]c2ccccc12)C(=O)N[C@H](Cc1ccccc1)C(=O)N[C@H](Cc1c[nH]c2ccccc12)C(=O)N[C@H](CC(C)C)C(=O)N[C@H](Cc1ccccc1)C(=O)N[C@H](CCCNC(=N)N)C(=O)N[C@H](CCCCN)C(=O)N[C@H](CCCNC(=N)N)C(=O)O [Chain307D] (H-[dR][dL][dK][dW][dF][dW][dL][dF][dR][dK][dR]-OH)
Resp: 8

Req: Next up: CC[C@@H](C)[C@@H](NC(=O)[C@@H](CC(C)C)NC(=O)[C@@H](CCCNC(=N)N)NC(=O)[C@H](N)CCCNC(=N)N)C(=O)N[C@H](Cc1c[nH]c2ccccc12)C(=O)N[C@H](CCCNC(=N)N)C(=O)N[C@H](CCCNC(=N)N)C(=O)N[C@H](Cc1ccccc1)C(=O)N[C@H](CCCCN)C(=O)N[C@H](Cc1c[nH]c2ccccc12)C(=O)N[C@H](CC(C)C)C(=O)N[C@H](CCCNC(=N)N)C(=O)O [Chain204D] (H-[dR][dR][dL][dI][dW][dR][dR][dF][dK][dW][dL][dR]-OH)
Resp: 4
